- measurementDescription: Pharmacokinetic study in mice
- Type: in vivo
- cond: female, ICR, mouse, plasma; mice, 10 mg/kg, intravenous
propertyLabel: half-life (h)
Enter your answer as a number in h; do not include the unit.

(Q) Check the records and state half-life for C=C[C@]1(C)C[C@@H](OC(=O)CSc2ccccc2N)[C@]2(C)[C@H](C)CC[C@]3(CCC(=O)[C@H]32)[C@@H](C)[C@@H]1O [Amphenmulin]
(A) 1.92

----------
- measurementDescription: Pharmacokinetic study in mice
- Format: in vivo
- cond: female, ICR, mouse, plasma; mice, 10 mg/kg, intravenous
propertyLabel: MRT
Units required after the number.

(Q) Check the records and state MRT for C=C[C@]1(C)C[C@@H](OC(=O)CSc2ccccc2N)[C@]2(C)[C@H](C)CC[C@]3(CCC(=O)[C@H]32)[C@@H](C)[C@@H]1O
(A) 2.57 h

----------
- measurementDescription: Pharmacokinetic study in mice
- Assay type: in vivo
- cond: female, ICR, mouse, plasma, ip; mice, 10 mg/kg, intraperitoneal
propertyLabel: bioavailability (%)
Enter your answer as a number in %; do not include the unit.

(Q) Check the records and state bioavailability for C=C[C@]1(C)C[C@@H](OC(=O)CSc2ccccc2N)[C@]2(C)[C@H](C)CC[C@]3(CCC(=O)[C@H]32)[C@@H](C)[C@@H]1O
(A) 20.7

----------
- measurementDescription: Pharmacokinetic study in mice
- Assay type: in vivo
- cond: female, ICR, mouse, plasma, ip; mice, 10 mg/kg, intraperitoneal
propertyLabel: Tmax (min)
Enter your answer as a number in min; do not include the unit.

(Q) Check the records and state Tmax for C=C[C@]1(C)C[C@@H](OC(=O)CSc2ccccc2N)[C@]2(C)[C@H](C)CC[C@]3(CCC(=O)[C@H]32)[C@@H](C)[C@@H]1O [Amphenmulin]
(A) 19.2

----------
- measurementDescription: Pharmacokinetic study in mice
- Assay type: in vivo
- cond: female, ICR, mouse, plasma, intraperitoneal, 10 mg/kg, mice, intraperitoneal 10 mg/kg, 6 h, n = 8; read-out: plasma concentration, mean ± S.D
propertyLabel: concentration at 6 h

(Q) Check the records and state concentration at 6 h for C=C[C@]1(C)C[C@@H](OC(=O)CSc2ccccc2N)[C@]2(C)[C@H](C)CC[C@]3(CCC(=O)[C@H]32)[C@@H](C)[C@@H]1O
(A) 120 ng/mL

----------
- measurementDescription: Pharmacokinetic study in mice
- Type: in vivo
- cond: female, ICR, mouse, plasma; mice, 10 mg/kg, oral; read-out: Vz/F
propertyLabel: Vd/F (L/kg)
Enter your answer as a number in L/kg; do not include the unit.

(Q) Check the records and state Vd/F for C=C[C@]1(C)C[C@@H](OC(=O)CSc2ccccc2N)[C@]2(C)[C@H](C)CC[C@]3(CCC(=O)[C@H]32)[C@@H](C)[C@@H]1O
(A) 28.5

----------
- measurementDescription: Pharmacokinetic study in mice
- Format: in vivo
- cond: female, ICR, mouse, plasma, intraperitoneal, 10 mg/kg, mice, intraperitoneal 10 mg/kg, 0.75 h, n = 8; read-out: plasma concentration, mean ± S.D
- Protocol: Pharmacokinetic parameters of amphenmulin were measured according to previous reports with some modifications. Each group consisted of eight female SPF-ICR mice. Amphenmulin (1 mg/mL) was administered intravenously, intraperitoneally, and orally at a dose of 10 mg/kg, respectively. […] The pharmacokinetic parameters of amphenmulin were determined from the mean plasma concentration with noncompartmental analysis in WinNonlin 5.2 software (Pharsight, Mountain View, CA, USA). […]
propertyLabel: concentration at 0.75 h (ng/mL)
Enter your answer as a number in ng/mL; do not include the unit.

(Q) Check the records and state concentration at 0.75 h for C=C[C@]1(C)C[C@@H](OC(=O)CSc2ccccc2N)[C@]2(C)[C@H](C)CC[C@]3(CCC(=O)[C@H]32)[C@@H](C)[C@@H]1O
(A) 740
